Heads up, these compounds all have pIC50 values measured for PP1α (PP1CA) (Oryctolagus cuniculus, UniProt P62139).
pIC50: −log10 of the molar value.

structureString | pIC50
COc1ccc2cc(-c3ccc(O)cc3)[nH]c(=O)c2c1 | < 4.30
COc1ccc(-c2cc3ccc(OC)cc3c(=S)[nH]2)cc1 | ≥ 5.05
Nc1c(-c2ccccc2)[nH]c(=O)c2ccccc12 | < 4.30
COc1ccc(-c2nc(OC)c3cc(OC)ccc3c2Br)cc1 | < 4.30
C#CCn1c(-c2ccc(OC)cc2)c([N+](=O)[O-])c2ccc(OC)cc2c1=O | 4.30 to 4.60

Given the compound "COc1ccc(-c2cc3ccc(OC)cc3c(OC)n2)cc1" , what is its reported pIC50?
4.62 to 5.00

Given the compound "COc1ccc2cc(-c3ccc(C#C[Si](C)(C)C)cc3)[nH]c(=O)c2c1" , what is its reported pIC50?
< 4.30
